test: in vitro; details: human, hela cells, % viability
Give measured viability at 28.5 h, 10 µM for each item. Keep answers brief.
Give bare numbers, in %.

Guide cases for viability at 28.5 h, 10 µM, answers given:
[[record]]
compound = "Cc1nnc(CS(=O)(=O)Cc2csc(C(C)(C)C)n2)n1C1CC1 [CBK305489]"
measurementtype = "viability at 28.5 h, 10 µM"
valuereported = 109

[[record]]
compound = "Cc1cc(=O)n(CC(=O)NCCn2ccnc2)c2ccccc12 [CBK281583]"
measurementtype = "viability at 28.5 h, 10 µM"
valuereported = 94.3

[[record]]
compound = "O=C(O)CNC(=O)/C(=C/c1ccc(Br)cc1)NC(=O)c1ccc(Br)o1 [CBK262537]"
measurementtype = "viability at 28.5 h, 10 µM"
valuereported = 80.1

[[record]]
compound = "CN(C)Cc1c(O)ccc2c(=O)c(Oc3ccc(-c4ccccc4)cc3)c(C(F)(F)F)oc12 [CBK264519]"
measurementtype = "viability at 28.5 h, 10 µM"
valuereported = 107


Answer for every listed entry: what is its viability at 28.5 h, 10 µM? The entries follow.
1. CS(=O)(=O)c1ccc(Cn2ccnc(OC3CCN(C(=O)c4cccc(C#N)c4)CC3)c2=O)cc1 [CBK161810]
2. O=C(Cc1ccccc1F)N1CCC(c2n[nH]c3ncccc23)CC1 [CBK284908]
3. CN(C)c1nc(Cl)c(C=Cc2cc(C(=O)O)c3ccccc3n2)s1 [CBK298272]
4. Cc1cc(CNS(=O)(=O)c2sc3ccc(Cl)cc3c2C)no1 [CBK062277]
5. CN1C[C@@H](NS(C)(=O)=O)C[C@H]1c1nc(-c2ccc3c(c2)OCO3)no1 [CBK288875]

Result:
1: 105; 2: 89.6; 3: 110; 4: 109; 5: 114
